# System: carbapenemase producing K. pneumoniae
# Test Details: MIC by broth micro-dilution (CLSI), carbapenemase producing K. pneumoniae
# Format: cell-based, Klebsiella pneumoniae
# Measurement Setup: Klebsiella pneumoniae, ATCCBAA1705, KPC-2 K. pneumoniae ATCC BAA-1705; read-out: MIC
Attribute Measured: MIC (µg/mL)

compound_structure_string=C[C@@H](NC(=O)CCN)[C@H]1C(=O)N2C(C(=O)O)=C(S[C@@H]3CN[C@H](C(=O)N(C)C)C3)[C@H](C)[C@H]12 target_or_test_system="carbapenemase producing K. pneumoniae" readout_units=µg/mL reported_measurement=2
compound_structure_string=Cc1nnnn1CC(=O)N[C@H](C)[C@H]1C(=O)N2C(C(=O)O)=C(S[C@@H]3CN[C@H](C(=O)N4CC[C@@H](N)C4)C3)[C@H](C)[C@H]12 target_or_test_system="carbapenemase producing K. pneumoniae" readout_units=µg/mL reported_measurement=4
compound_structure_string=C[C@@H](NC(=O)Cn1nnc(N)n1)[C@H]1C(=O)N2C(C(=O)O)=C(S[C@@H]3CN[C@H](C(=O)N4CC[C@@H](N)C4)C3)[C@H](C)[C@H]12 target_or_test_system="carbapenemase producing K. pneumoniae" readout_units=µg/mL reported_measurement=16

(I) CCOC(=O)CN[C@H](C)[C@H]1C(=O)N2C(C(=O)O)=C(S[C@@H]3CN[C@H](C(=O)N(C)C)C3)[C@H](C)[C@H]12
(II) C[C@@H](NC(=O)Cn1cnnn1)[C@H]1C(=O)N2C(C(=O)O)=C(S[C@@H]3CN[C@H](C(=O)N4CC[N+](C)(C)CC4)C3)[C@H](C)[C@H]12
Kindly compare I with II and tell me which has the lower MIC figure. Please indicate the selected item by its label.
II
(II: 2 µg/mL, I: 32 µg/mL)

* * *

# Test system: carbapenemase producing K. pneumoniae
# Test Details: MIC by broth micro-dilution (CLSI), carbapenemase producing K. pneumoniae
# Assay type: cell-based, Klebsiella pneumoniae
# Measurement Setup: Klebsiella pneumoniae, ATCCBAA1705, KPC-2 K. pneumoniae ATCC BAA-1705; read-out: MIC
Attribute Measured: MIC (mg/L)

compound_structure_string=C[C@@H](NC(=O)C(F)F)[C@H]1C(=O)N2C(C(=O)O)=C(S[C@@H]3CN[C@H](C(=O)N4CC[C@H](NC(=N)N)C4)C3)[C@H](C)[C@H]12 readout_units=mg/L reported_measurement=4

(P) C[C@@H](NC(=O)[C@@H]1CCCN1)[C@H]1C(=O)N2C(C(=O)O)=C(S[C@@H]3CN[C@H](C(=O)N(C)C)C3)[C@H](C)[C@H]12
(Q) C[C@@H](NC(=O)C(F)F)[C@H]1C(=O)N2C(C(=O)O)=C(S[C@@H]3CN[C@H](C(=O)N4CCN(C(=O)CN)CC4)C3)[C@H](C)[C@H]12
(R) C[C@@H](NC(=O)Cn1cnnn1)[C@H]1C(=O)N2C(C(=O)O)=C(S[C@@H]3CN[C@H](C(=O)N4C[C@@H](F)[C@@H](N)C4)C3)[C@H](C)[C@H]12
Put the entries in order of MIC, starting with the largest number. Returns: the labels arranged in the requested order.
P, Q, R

* * *

# Tested on: carbapenemase producing K. pneumoniae
# Test Details: MIC by broth micro-dilution (CLSI), carbapenemase producing K. pneumoniae
# Type: cell-based, Klebsiella pneumoniae
# Measurement Setup: Klebsiella pneumoniae, ATCCBAA1705, KPC-2 K. pneumoniae ATCC BAA-1705; read-out: MIC
Attribute Measured: MIC (µg/mL)

(I) CNC[C@@H]1CCCN1CC(=O)N[C@H](C)[C@H]1C(=O)N2C(C(=O)O)=C(S[C@@H]3CN[C@H](C(=O)N(C)C)C3)[C@H](C)[C@H]12 [Example 520]
(II) C[C@@H](NC(=O)[C@H]1CCCN1)[C@H]1C(=O)N2C(C(=O)O)=C(S[C@@H]3CN[C@H](C(=O)N4CC[C@@H](N)C4)C3)[C@H](C)[C@H]12 [Example 206]
Parameter check: reported MIC is higher for which label, I or II ? Please indicate the selected item by its label.
I
